So I've got a bunch of compounds here, and I need their t1/2 values.
test system: Liver microsome; assay: Prodrug conversion in human liver microsomes assessed as half life
Form entry: value (h) — number only.

Exam item: Please give the measured t1/2 for this compound: `CCOc1cc(NC(=O)C2(NC(=O)c3ccc4c(C5CCCC5)c(-c5ncc(Cl)cn5)n(C)c4c3)CCC2)ccc1/C=C/C(=O)OCC(=O)N1CCN(C)CC1`
Marked response: 0.35

Exam item: Now try `CCOC(=O)COC(=O)/C=C/c1ccc(NC(=O)C2(NC(=O)c3ccc4c(C5CCCC5)c(-c5ncc(Cl)cn5)n(C)c4c3)CCC2)cc1OCC` .
Marked response: 1.6

Exam item: Param item: `CCOc1cc(NC(=O)C2(NC(=O)c3ccc4c(C5CCCC5)c(-c5ncc(Cl)cn5)n(C)c4c3)CCC2)ccc1/C=C/C(=O)OCOP(=O)(O)OC(C)(C)C`
Marked response: 1.48

Exam item: What about `CCOc1cc(NC(=O)C2(NC(=O)c3ccc4c(C5CCCC5)c(-c5ncc(Cl)cn5)n(C)c4c3)CCC2)ccc1/C=C/C(=O)OCC(=O)N1CCCC1` ?
Marked response: 1.65

Exam item: For `CCCN(C)C(=O)COC(=O)/C=C/c1ccc(NC(=O)C2(NC(=O)c3ccc4c(C5CCCC5)c(-c5ncc(Cl)cn5)n(C)c4c3)CCC2)cc1OCC` then?
Marked response: 0.317

Exam item: Please do the same for `CCOc1cc(NC(=O)C2(NC(=O)c3ccc4c(C5CCCC5)c(-c5ncc(Cl)cn5)n(C)c4c3)CCC2)ccc1/C=C/C(=O)OC(=O)C[C@H](O)C(=O)O` as well.
Marked response: 5.57

Exam item: # iterate: `CCOc1cc(NC(=O)C2(NC(=O)c3ccc4c(C5CCCC5)c(-c5ncc(Cl)cn5)n(C)c4c3)CCC2)ccc1/C=C/C(=O)OCCN(C)C`
Marked response: 1.5

Exam item: Now the same for `CCOc1cc(NC(=O)C2(NC(=O)c3ccc4c(C5CCCC5)c(-c5ncc(Cl)cn5)n(C)c4c3)CCC2)ccc1/C=C/C(=O)OCCOCCOC`
Marked response: 0.85

Exam item: Same thing, different compound: `CCOc1cc(NC(=O)C2(NC(=O)c3ccc4c(C5CCCC5)c(-c5ncc(Cl)cn5)n(C)c4c3)CCC2)ccc1/C=C/C(=O)OCCN1CCN(C)CC1`
Marked response: 1.85

Exam item: Note, next up: `CCOc1cc(NC(=O)C2(NC(=O)c3ccc4c(C5CCCC5)c(-c5ncc(Cl)cn5)n(C)c4c3)CCC2)ccc1/C=C/C(=O)OCC(N)=O`
Marked response: 0.983

* * *

system: Rattus norvegicus; experiment: AUC in rat plasma at 10 mg/kg, po using 10.6% PEG400, 5.4% Cremophor EL, 2.6% Labrasol, 1.4% Capmul MCM in water (80%) vehicle; type: ADME, organism-based; parameters: dose 10 mg/kg, route oral; details: in vivo, BLD = below limit of detection
PROPERTY_LABEL: AUC

| MOL_SMILES | REPORTED_RESULT |
| --- | --- |
| CCOc1cc(NC(=O)C2(NC(=O)c3ccc4c(C5CCCC5)c(-c5ncc(Cl)cn5)n(C)c4c3)CCC2)ccc1/C=C/C(=O)OCC(=O)N1CCN(C)CC1 | BLD |
| CCOc1cc(NC(=O)C2(NC(=O)c3ccc4c(C5CCCC5)c(-c5ncc(Cl)cn5)n(C)c4c3)CCC2)ccc1/C=C/C(=O)OCCN1CCN(C)CC1 | BLD |
| CCOc1cc(NC(=O)C2(NC(=O)c3ccc4c(C5CCCC5)c(-c5ncc(Cl)cn5)n(C)c4c3)CCC2)ccc1/C=C/C(=O)OCCN(C)C | BLD |

* * *

assay: Prodrug solubility in Labrasol; format: ADME
Consider the following compounds; for each one, report its solubility.

Exam item: State the recorded solubility for this entry: `CCOc1cc(NC(=O)C2(NC(=O)c3ccc4c(C5CCCC5)c(-c5ncc(Cl)cn5)n(C)c4c3)CCC2)ccc1/C=C/C(=O)OCCN1CCCC1`
Marked response: < 60 mg/mL

Exam item: Same for `CCOc1cc(NC(=O)C2(NC(=O)c3ccc4c(C5CCCC5)c(-c5ncc(Cl)cn5)n(C)c4c3)CCC2)ccc1/C=C/C(=O)OCCN(C)C`
Marked response: < 100 mg/mL

Exam item: Moving on to the next compound: `CCOc1cc(NC(=O)C2(NC(=O)c3ccc4c(C5CCCC5)c(-c5ncc(Cl)cn5)n(C)c4c3)CCC2)ccc1/C=C/C(=O)OCCN1CCN(C)CC1`
Marked response: < 100 mg/mL

Exam item: Next up: `CCOc1cc(NC(=O)C2(NC(=O)c3ccc4c(C5CCCC5)c(-c5ncc(Cl)cn5)n(C)c4c3)CCC2)ccc1/C=C/C(=O)OCCNN1CCCC1`
Marked response: < 100 mg/mL

Exam item: Then this compound: `CCOc1cc(NC(=O)C2(NC(=O)c3ccc4c(C5CCCC5)c(-c5ncc(Cl)cn5)n(C)c4c3)CCC2)ccc1/C=C/C(=O)OCC(N)=O`
Marked response: > 200 mg/mL

Exam item: Also, `CCOc1cc(NC(=O)C2(NC(=O)c3ccc4c(C5CCCC5)c(-c5ncc(Cl)cn5)n(C)c4c3)CCC2)ccc1/C=C/C(=O)OCC(=O)N1CCN(C)CC1` please.
Marked response: < 100 mg/mL

Exam item: Thanks! And `CCOc1cc(NC(=O)C2(NC(=O)c3ccc4c(C5CCCC5)c(-c5ncc(Cl)cn5)n(C)c4c3)CCC2)ccc1/C=C/C(=O)OCC(=O)NC` ?
Marked response: 200 mg/mL

Exam item: Next entry: `CCCN(C)C(=O)COC(=O)/C=C/c1ccc(NC(=O)C2(NC(=O)c3ccc4c(C5CCCC5)c(-c5ncc(Cl)cn5)n(C)c4c3)CCC2)cc1OCC`
Marked response: < 200 mg/mL

Exam item: Ok, now `CCOc1cc(NC(=O)C2(NC(=O)c3ccc4c(C5CCCC5)c(-c5ncc(Cl)cn5)n(C)c4c3)CCC2)ccc1/C=C/C(=O)OCC(=O)N(C)C`
Marked response: > 200 mg/mL

Exam item: Also, `CCOc1cc(NC(=O)C2(NC(=O)c3ccc4c(C5CCCC5)c(-c5ncc(Cl)cn5)n(C)c4c3)CCC2)ccc1/C=C/C(=O)OCCN1CCOCC1` please.
Marked response: < 60 mg/mL

Exam item: Then what about the compound `CCOc1cc(NC(=O)C2(NC(=O)c3ccc4c(C5CCCC5)c(-c5ncc(Cl)cn5)n(C)c4c3)CCC2)ccc1/C=C/C(=O)OCC(=O)N1CCOCC1` ?
Marked response: < 30 mg/mL

Exam item: And the next one, `CCOc1cc(NC(=O)C2(NC(=O)c3ccc4c(C5CCCC5)c(-c5ncc(Cl)cn5)n(C)c4c3)CCC2)ccc1/C=C/C(=O)OCCOCCOC` ?
Marked response: < 30 mg/mL

Exam item: Follow-up item: `CCOc1cc(NC(=O)C2(NC(=O)c3ccc4c(C5CCCC5)c(-c5ncc(Cl)cn5)n(C)c4c3)CCC2)ccc1/C=C/C(=O)OCC(=O)N(C)C(C)C`
Marked response: < 200 mg/mL

Exam item: What about `CCOc1cc(NC(=O)C2(NC(=O)c3ccc4c(C5CCCC5)c(-c5ncc(Cl)cn5)n(C)c4c3)CCC2)ccc1/C=C/C(=O)OCC(=O)N1CCCC1` ?
Marked response: 200 mg/mL

* * *

tested on: Liver microsome; test: Prodrug conversion in rat liver microsomes assessed as half life
Provide the reported log10(t1/2) of each item.
In plain terms, each number is the log10 of measured t1/2 in h.

Exam item: Name the recorded log10(t1/2) for `CCOC(=O)COC(=O)/C=C/c1ccc(NC(=O)C2(NC(=O)c3ccc4c(C5CCCC5)c(-c5ncc(Cl)cn5)n(C)c4c3)CCC2)cc1OCC` .
Marked response: 0.39

Exam item: Repeat for the following molecule: `CCOc1cc(NC(=O)C2(NC(=O)c3ccc4c(C5CCCC5)c(-c5ncc(Cl)cn5)n(C)c4c3)CCC2)ccc1/C=C/C(=O)N(C)CCO`
Marked response: 0.35

Exam item: And what about the molecule `CCOc1cc(NC(=O)C2(NC(=O)c3ccc4c(C5CCCC5)c(-c5ncc(Cl)cn5)n(C)c4c3)CCC2)ccc1/C=C/C(=O)OCCN1CCOCC1` ?
Marked response: -0.23

Exam item: Another molecule to check: `CCOc1cc(NC(=O)C2(NC(=O)c3ccc4c(C5CCCC5)c(-c5ncc(Cl)cn5)n(C)c4c3)CCC2)ccc1/C=C/C(=O)OCc1ccccc1`
Marked response: 0.34

Exam item: Can you check `CCOc1cc(NC(=O)C2(NC(=O)c3ccc4c(C5CCCC5)c(-c5ncc(Cl)cn5)n(C)c4c3)CCC2)ccc1/C=C/C(=O)NCCO` next?
Marked response: 0.17

Exam item: And for `CCOc1cc(NC(=O)C2(NC(=O)c3ccc4c(C5CCCC5)c(-c5ncc(Cl)cn5)n(C)c4c3)CCC2)ccc1/C=C/C(=O)OCC(Cl)(Cl)Cl` ?
Marked response: -0.63
